Entry source: the RNAGym collection of RNA variant scans (doi:10.1126/science.aae0568)

B1: tRNA (parent)
chain: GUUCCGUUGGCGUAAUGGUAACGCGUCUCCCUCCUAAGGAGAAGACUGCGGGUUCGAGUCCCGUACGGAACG

# Variants of: B1
# method-summary: yeast fitness relative to wild type (ratio to wild type); higher = fitter; tRNA-Arg(CCU), competitive growth, 37 C, YPD
This sample holds only a part of the variants without activity.
measured-endpoint: yeast fitness
Answers are plain numbers.

# annotated cases, reported yeast fitness shown
{"columns": ["variant-designation", "yeast fitness"],
 "data": [
  ["G6A G18C C30G C34A A37C A65U", 0.584],
  ["C4A G23A C29U C34G G38C U54A A57C", 0.602],
  ["G18A A43G A65C", 0.595],
  ["C30A C49U G67U", 0.608],
  ["G12A G18C C29U", 0.599],
  ["G10U", 0.887]
]}

Report yeast fitness for every entry below.
1. C27U C33G A43G A45C
2. U2G G44C G58C
3. A20G A37C G68A
4. G23C G25A C61U
5. C30U G44A A65C

// result
1. 0.634
2. 0.647
3. 0.515
4. 0.536
5. 0.553
